This collection of values is drawn from the supplement of paper PMC9170038.

# Tested on: MS2 coat protein
# ASSAY_NAME: apparent KD of MS2 coat protein; higher = weaker reporter binding
# STATED_CONDITIONS: Eterna round: R107; input ligand: arginine 13.2 mM
Readings of apparent KD of MS2 coat protein for the listed sequences
MEASURED_PROPERTY: apparent KD of MS2 coat protein (nM)

> print(dat)
                             sequence.entry   measured.target  measured
1  ACAUGAGGAUCACCCAUGUAUGACUAUCCUCGAGGACCGGUACGGCCGCCACUCGAAGGAGUGGCUCGCGAGUGCGCACUUGCGA [5' end]  MS2 coat protein      10.9
2  GAGCUGAUGUAGAGAUUUUAUUUCUGAGAUACCAGUACAGAAAUGUACCCUUGGCAGCUCAGCUUUACAUGAGGAUCACCCAUGU [Ex Theophylline A 16]  MS2 coat protein      16.9
3  ACAUGAGGAUCACCCAUGUCACGGCACGAUACCAGCUGAUGCGGUGGCCCUUGGCAGCGUGACGUUUGGUCCCGCGGAUGACGGG [zzmullin]  MS2 coat protein      36.6

====

Readings of apparent KD of MS2 coat protein for the listed sequences
# Test system: MS2 coat protein
# ASSAY_NAME: apparent KD of MS2 coat protein; designed switch direction (-1 OFF switch, 1 ON switch): 1; higher = weaker reporter binding
# STATED_CONDITIONS: Eterna round: R95; input ligand: microRNA oligo, concentration not stated

SEQUENCE_ENTRY	apparent KD of MS2 coat protein (nM)
AAGAGAGAAAUACAGGAUAUGAGGAAAGGAACAUGAGGAUCACCCAUGUAAGAGAAAGGGAAAGAUCAGAAGGGUAGAGAAGAGA [JR_SS2_Sub001] (puzzle: Same State 2)	66.1
GGAGCCGGCACCGAGGAUAUUCAUAUUAAAACAUGAGGAUCACCCAUGUACGCCAGAAGGCGUUGGGAGAAGGCGGAUCGGCUCG [Xeonanis - 22] (puzzle: Same State 2)	79.9
GAUACACAUGAGGAUCACCCAUGUCGUAUGACAUGAGGAUAUGUACAGACUUCGGUCUGUACAGAAGGCAUGUGUC [SS1 - 1011 Omei Mod 2] (puzzle: Same State 1)	48.3
GAGGAUGAUUUACAGGAUAUAUAGAAGAUGACAUGAGGAUCACCCAUGUAAGAGAGAGGAGGGAGAUAGAAGGGUAAGGGAUGUG [JR_SS2_Sub41] (puzzle: Same State 2)	27.8
CUGCAACAUGAGGAUCACCCAUGUAACCCAAUUAUAGGAUAUGUGAUGGUGAUCGACAUGACAGAAGGGUGAUUGG [Arinra] (puzzle: Same State 1)	99.4

====

Readings of apparent KD of MS2 coat protein for the listed sequences
# System: MS2 coat protein
# ASSAY_NAME: apparent KD of MS2 coat protein; designed switch direction (-1 OFF switch, 1 ON switch): 1; higher = weaker reporter binding
# STATED_CONDITIONS: input ligand: none

SEQUENCE_ENTRY	UNIT	apparent KD of MS2 coat protein
AGGUUCGUGCUAGGAUAUCUAGGAUAUGGACGAGGAUUACCCGAGCAGGAUUACCGCACCAGAGGAGAGAAGGAGCAACAAGAG [pwkr ssNG2 2F5 2FMN.13] (Eterna round: R96, puzzle: Same State NG 2)	µM	0.42
AGAGCCGGCACUGAGGAUAUUCAUAUUAAAACAUGAGGAUCACCCAUGUAGGCCAGAAGGCCUUGGGAGAAGGCAGGUCGGCUCU [Mat - Same State 2 - Mod of UCT - D61] (Eterna round: R96, puzzle: Same State 2)	µM	0.366
UAUCCAUAGAUAGGAUAUUAGAGAACAUGAGGAUCACCCAUGUUUGGCUUGGUUUUAAGCUAAUCUGAGAAGGAUCUUGAUGAA [SameState NG2 #8] (Eterna round: R96, puzzle: Same State NG 2)	µM	0.119
AGCUAGUACCGAGGAUAUACUUACAUGAGGACUACCCAUGUAUACAUGGUUCAAUAGGACUACAUGUAGAAGGCGGUACUAGCA [jandersonlee JLSSNG2 1.24 1FMN F5CU+F7U.1] (Eterna round: R96, puzzle: Same State NG 2)	µM	0.0756
AGGCUCAGACGAGGAUAUGAUCAUGGCGCUUCGGCGCAUACAUGAGGAUCACCCAUGUAGGGUGAUCAGAAGGCGUCUGAGCCA [SSNG2/8-A1] (Eterna round: R96, puzzle: Same State NG 2)	µM	0.314
GGUAGGUUACUACCAGACAUGAGGAUCACCCAUGUAAGUGGGAAGGAUAUGGUACCUUUUAGGUACCAGAAGGUCCAUAUAUUC [JL SSNG3 1.44] (Eterna round: R96, puzzle: Same State NG 3)	µM	0.849
ACAUAGGGAACAGGAUAUGGGAAAAUUCCCUACAUGAGGAUCACCCAUGUCCGUAGGGACAACAUCCAGAAGGGUUACCACAUA [Eternabot solution 1] (Eterna round: R96, puzzle: Same State NG 2)	µM	0.656
UUGCGGGCUUGAGGAUAUUGAGUACAUAUGUUUAACAUGAGGAUCACCCAUGUGGGUUGCGGUGUCGAGAAGGUGGCUUCCUGC [salish99_SSNG2_r04_814] (Eterna round: R96, puzzle: Same State NG 2)	µM	0.0915
CUGAAAUGUCAAGGAUAUCACGUCGAUUAGACGUGAGAAGGUGAUCUGCACAUGAGGAUCACCCAUGUGUUACAUGGGAAUCAG [Brourd's SSNG1/1-A2 mod 15] (Eterna round: R96, puzzle: Same State NG 1)	µM	0.624
AUAGUUGCCGAAGGAUAUGAUGAUGAUCACACAUCAGAAGGUCGGCUAUUGGGUGGACAUGAGGAUCACCCGUGUUCUUUGGUC (Eterna round: R96, puzzle: Same State NG 1)	µM	0.103
AGCUAGUACCGAGGAUAUACGUACAUGAGGAUCACCCAUGUAUACAUGAUUUAAUGAGACUACAUGUAGAAGGCGGUACUAGCA [JL SSNG2 1.24] (Eterna round: R96, puzzle: Same State NG 2)	µM	0.0537
CCGUAGAUGGUAGGAUAUGGAGCCUUAUUGGCUCCAGAAGGAUCUAAAACAUGAGGAUCACCCAUGUCGGCGGUCAAUAGACCG [Eli NG1ss - 83] (Eterna round: R96, puzzle: Same State NG 1)	µM	0.107
UUCACCUUUUUUUACAUGAGGAUCACCCAUGUUUACCCUACGUAGGAUAUCGAUGAAUGAUUGUACGAGAAGGACGUAGUAAGU [JR_SSND3_Sub057] (Eterna round: R96, puzzle: Same State NG 3)	µM	0.0361
AGUAGUUUAACAUGAGGAUCACCCAUGUAUCUAUCUGUAACCUAGGAUAUGGACGUUUUAUUUAACCAGAAGGAGGAUCGUUUA [JR_SSNG3_Sub045] (Eterna round: R96, puzzle: Same State NG 3)	µM	0.0253
GUAGCAUACCGAGGAUAUUCAUUACAUGAGGAUCACCCAUGUUAAUUAUAGGCCAAAAGGCCUUGGGAGAAGGCGGAAUGCUAC [Xeonanis - 20 Mod13] (Eterna round: R96, puzzle: Same State NG 2)	µM	0.0133
UUGGUUGUCGUAGGAUAUGUAGGAUAUGCCUACAUGAGGAUCACCCAUGUUCGCAUGGCAGAAGGACAGAAGGACGAUGACCAU [pwkr ssNG2 2FMN + 1F5.19] (Eterna round: R96, puzzle: Same State NG 2)	µM	0.0502
GCUACCAAUGAAGCCAACAUGAGGAUCACCCAUGUAUGUUGGUAGGAUAUCGUUUGCAAAGCAAACGAGAAGGGCUAAGGUAGC [Mat - Same State NG 3 - JL Mod - D75] (Eterna round: R96, puzzle: Same State NG 3)	µM	0.051

====

# Test system: MS2 coat protein
# ASSAY_NAME: apparent KD of MS2 coat protein; designed switch direction (-1 OFF switch, 1 ON switch): -1; higher = weaker reporter binding
# STATED_CONDITIONS: input ligand: FMN 200 uM

SEQUENCE_ENTRY	apparent KD of MS2 coat protein, nM
AUUUUGUGAGGAUAUUAGUUGUAGAAAAUUGUUAGUAUAGCUGAGAAGGCACAUGAGGAUCACCCAUGUAAAUC [JR_Ex4_Sub042] (Eterna round: R97, puzzle: Exclusion 4)	91
AGCGAAAAGGCAGGAUAUGAGAAUAGAUAGAGCUCAGAAGGGCCACAUGAGGAUCACCCAUGUAAAGUCUUGAGGCUGCGUGGU [Prohibition 12 - Jieux - Exclusion NG 1] (Eterna round: R96, puzzle: Exclusion NG 1)	488
CCGGCAUGAGGAUAUCCAUCUGGAUCAGACUAGAUCCUGAUGGAGAAGGCACAUGAGGAUCACCCAUGUUACGG [Eli 4x 4.38] (Eterna round: R97, puzzle: Exclusion 4)	51.2
